assay: melting temperature; fluorescence melt of hairpins on a sequencing array, two-state fit, raised by 9.35 °C to match UV melts; details: sodium 0.088 M
Criterion: Tm strictly less than 50 °C. Met: Met. Not met: Not met.

> print(dat)
                           input.sequence  assigned.label
 1  GTCATCGGAAACGATGAC (((((((....)))))))         Not met
 2  GGGGATTCGAAAGAACCC (((..(((....))))))             Met
 3  GGGGACGAAAGTCTGCCC ((((((....)))..)))             Met
 4          GTTCGGAAACGAAC (((((....)))))         Not met
 5  GTCGGAGGAAACTCTGGC (.(.(((....))).).)             Met
 6  GCTCCCGAAAGGGAAAGC ((((((....)))..)))         Not met
 7      GATCTCCCCAGAGATC ((((((....))))))         Not met
 8  GTGGTCGGAAACAACCAC (((((.(....).)))))             Met
 9      GGGGTAGAAATACCCC ((((((....))))))         Not met
10  GCAGCGCGAAAGCGTGGC ((..(((....)))..))         Not met
11  GCTATCGGAAACGGTAGC ((((.((....)).))))         Not met
12  GCCGATGGAAACGTCGGC (((((.(....).)))))         Not met
13      GATCGTTTTCACGATC ((((((....))))))         Not met
14  GACCCCGAAAGGGGCGTC ((((((....)))..)))         Not met
15  GAAGACGAAAGTCGCTTC ((((((....)))..)))             Met
16  GTCCCCGAAAGGGGAGAC ((((((....)))..)))         Not met
17  GCGGAGCGAAAGCTGGGC ((..(((....)))..))             Met
18  GTTGTTACGAAAGTAAAC (((..(((....))))))             Met
19  GTCCAACGAAAGTTAGAC (((.(((....))).)))             Met
20  GATGTGCGAAAGCAGATC (((.(((....))).)))         Not met
21  GCCGATGGAAACATCAGC ((.((((....)))).))             Met
22  GGACCCGAAAGGGGTTCC ((((((....)))..)))             Met
23  GCTTTTCGAAAGAACAGC (((.(((....))).)))             Met
24  GGCTTTTCGAAAGAAGCC (((..(((....))))))             Met

---

Consider the following sequences and their measured Tm readings.
assay: melting temperature; fluorescence melt of hairpins on a sequencing array, two-state fit, raised by 9.35 °C to match UV melts; conditions: sodium 0.088 M
measurement-kind: Tm

> print(dat)
                           input.sequence  value.reported
 1  GAAAGCGAAAGCTTATTC ((((((....)))..)))         32.7 °C
 2  GCTGTGGGAAACCGCAGC ((((.((....)).))))         60.7 °C
 3  GTACTTGCGAAAGCATAC (((..(((....))))))         30.2 °C
 4  GGCCAACGAAAGTTCGCC (((.(((....))).)))           47 °C
 5  GGAAATCGAAAGATATCC (((.(((....))).)))         37.8 °C
 6  GGGTCTCGAAAGAGTCCC (((.(((....))).)))         53.8 °C
 7  GGTTCCCGAAAGGGGACC (((.(((....))).)))         67.6 °C
 8  GAGTAGGGAAACCTACCC (.(((((....))))).)         35.1 °C
 9  GTTTTGGGAAACCAAAAC (((((((....)))))))         57.5 °C
10  GTAATGGGAAACCACTAC (((.(((....))).)))         27.6 °C
11      GATCTTAAGTAAGATC ((((((....))))))         42.8 °C
12  GGAGTGGGAAACCACTTC (.(((((....))))).)         49.4 °C

---

Consider the following sequences and their measured Tm readings.
test: melting temperature; fluorescence melt of hairpins on a sequencing array, two-state fit, raised by 9.35 °C to match UV melts; conditions: sodium 0.088 M
measurement-kind: Tm (°C)

> print(dat)
                          input.sequence  value.reported
1  GCACCGCGAAAGCAATGC (((..((....))..)))            27.3
2      GATCCCATTAGGGATC ((((((....))))))              63
3  GGGTGGGGAAACCCGTCC ((..(((....)))..))            48.8
4  GGGAGGGCGAAAGCCCCC (((..(((....))))))            55.3
5  GACCGTGGAAACACGACC (..((((....))))..)              28
6    GTTCACGAAAGTGTAAC ((((((....))).)))            38.7

---

assay: melting temperature; fluorescence melt of hairpins on a sequencing array, two-state fit, raised by 9.35 °C to match UV melts; conditions: sodium 0.088 M
Criterion: Tm strictly less than 40 °C. Met: class 1. Not met: class 0.

> print(dat)
                           input.sequence  assigned.label
 1  GCTGAGCGAAAGCTGAGC (((.(((....))).)))         class 0
 2  GTCACAACGAAAGTTGAC (((..(((....))))))         class 1
 3  GCGTCCCGAAAGGGTCGC (((.(((....))).)))         class 0
 4  GTTGCGGCGAAAGCCAAC (((..(((....))))))         class 1
 5  GCCGGTGGAAACGCTGGC (((.(.(....).).)))         class 0
 6  GAGCAGGGAAACCTGCCC (.(((((....))))).)         class 0
 7  CGAGTGCGGAAACGCTCG (((..(((....))))))         class 0
 8  GTATCTCGAAAGAGCTAC (((.(((....))).)))         class 1
 9    GGGCTACGAAAGTACCC (((.(((....))))))         class 0
10  GGTAGTCGAAAGACGACC (((.(((....))).)))         class 0
11  GCGTGCACGAAAGTGCGC (((..(((....))))))         class 0
12  GCTTGGCGAAAGCTAGGC ((.(.((....)).).))         class 0
13  GCGACGCGAAAGCCTAGC ((.(.((....)).).))         class 0
14      CGCGGATGATTCCGCG ((((((....))))))         class 0
15  GTAGGTGGAAACGTCTAC ((((..(....)..))))         class 1
16  GCTATGGGAAACCATAGC (((((((....)))))))         class 0
17  GGTTACGGAAACGTAGTC (..((((....))))..)         class 1
18  GGACTCGAAAGAGCTTCC ((((((....)))..)))         class 1
19  GTCTGTCCGAAAGGAGAC (((..(((....))))))         class 1
20  GTGACACGAAAGTGCCAC (((.(((....))).)))         class 0
21  GAACCCGAAAGGGGATTC ((((((....)))..)))         class 0
22  CGTGTGCGGAAACGCACG (((..(((....))))))         class 0
23  GGTATAGGAAACTGTACC ((((.((....)).))))         class 0
24  GTGATTACGAAAGTACAC (((..(((....))))))         class 1
25  GGTCAGGGAAACCTAACC (((.(((....))).)))         class 1
26  GCCAAGCGAAAGCTCAGC ((..(((....)))..))         class 1
27      GATCTTTCCCAAGATC ((((((....))))))         class 0
28  GTCCGCGAAAGCGGGGAC ((((((....)))..)))         class 0
29  GTGATACCGAAAGGTCAC (((..(((....))))))         class 0
30    GCATAGCGAAAGCTTGC (((.(((....))))))         class 0
31  GTACCCTCGAAAGAGTAC (((..(((....))))))         class 1
32  GTAGTCGAAAGACGATAC ((((((....)))..)))         class 1
33  GCCTTCGAAAGAAGAGGC ((((((....)))..)))         class 0
34  GCAGCGACGAAAGTCTGC (((..(((....))))))         class 0
35  GTCTTTGCGAAAGCAGAC (((..(((....))))))         class 1
36  GAGAGAGGAAACTCCCTC (((.(((....))).)))         class 1
37  GTTGGAGGAAACTCTGAC ((..(((....)))..))         class 1
38  GCGTGTCCGAAAGGACGC (((..(((....))))))         class 0
39  GGACTTCGAAAGAACTCC (((.(((....))).)))         class 1
40  GCATACGAAAGTATGTGC ((((((....)))..)))         class 0
41  CGACCGGAAACGGAGTCG ((((((....)))..)))         class 0
42  GAACACGAAAGTGCCTTC ((((((....)))..)))         class 1
43  GGAGTCGGAAACGGCTCC ((((.((....)).))))         class 0
44  GCGGTCCCGAAAGGGCGC (((..(((....))))))         class 0
45      GATCCAAAATTGGATC ((((((....))))))         class 0
46  CGGTCGGAAACGAATCCG ((((((....)))..)))         class 1
